Origin of the recorded values: paper PMC8868346

- SUBJECT_OF_TEST: hrMAO-B (Homo sapiens, UniProt P27338)
- Construct: purchased Sigma–Aldrich
- Sequence (P27338 whole entry): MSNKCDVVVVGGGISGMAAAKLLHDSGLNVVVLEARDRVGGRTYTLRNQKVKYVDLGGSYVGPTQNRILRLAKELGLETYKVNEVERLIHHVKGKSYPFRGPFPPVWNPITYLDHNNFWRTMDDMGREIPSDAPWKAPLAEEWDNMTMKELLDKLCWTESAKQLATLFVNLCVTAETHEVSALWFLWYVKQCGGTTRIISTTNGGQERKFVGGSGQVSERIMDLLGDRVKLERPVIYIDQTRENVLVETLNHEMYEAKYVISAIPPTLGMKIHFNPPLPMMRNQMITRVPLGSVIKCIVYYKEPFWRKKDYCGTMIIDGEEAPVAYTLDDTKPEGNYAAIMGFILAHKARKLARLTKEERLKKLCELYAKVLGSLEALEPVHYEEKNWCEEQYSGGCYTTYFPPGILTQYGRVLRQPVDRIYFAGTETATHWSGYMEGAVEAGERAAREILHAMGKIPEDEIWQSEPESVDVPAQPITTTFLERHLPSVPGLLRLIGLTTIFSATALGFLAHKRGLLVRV
- METHOD_SUMMARY: Inhibition of monoamine oxidase B (Amplex UltraRed, tyramine)
- Format: biochemical
- RECORDED_CONDITIONS: ratio IC50 MAO-A/IC50 MAO-B
Measured Selectivity Index (MAO-A/MAO-B) values are reported for all entries that follow.
TEST_READOUT: Selectivity Index (MAO-A/MAO-B)

>>> result("C#CCNCCc1c[nH]c2ccc(OC)cc12")
0.0106
>>> result("C#CCN(CC#C)CCc1c[nH]c2ccc(OC)cc12")
">1.12"
>>> result("C#CC(=O)NCCc1c[nH]c2ccc(OC(=O)/C=C/c3ccc(C)cc3)cc12")
5.89

###

- Test system: SH-SY5Y cells
- METHOD_SUMMARY: Neuroprotection in SH-SY5Y against 6-hydroxydopamine (MTT)
- Assay type: cell-based, human
- RECORDED_CONDITIONS: 6-OHDA 100 µM; compound 0.1 µM, 24 h pre- and 24 h co-incubation
# strict inequality: 6-OHDA Protection (%) < 80% yields Y, everything else yields N

>>> assigned_label("C#CC(=O)NCCc1c[nH]c2ccc(OC(=O)C=Cc3ccccc3)cc12")
"Y"
>>> assigned_label("C#CC(=O)NCCc1c[nH]c2ccc(OC)cc12")
"Y"
>>> assigned_label("C#CCNCCc1c[nH]c2ccc(OC)cc12")
"N"
>>> assigned_label("COc1ccc2[nH]cc(CCNC(C)=O)c2c1 [Melatonin, reference compound]")
"N"
>>> assigned_label("C#CCN(CC#C)CCc1c[nH]c2ccc(OC(=O)/C=C/c3ccc(C)cc3)cc12")
"Y"
>>> assigned_label("C#CCN(CC#C)CCc1c[nH]c2ccc(OC)cc12")
"N"
>>> assigned_label("C#CC(=O)NCCc1c[nH]c2ccc(OC(=O)/C=C/c3ccc(C)cc3)cc12")
"Y"
>>> assigned_label("C#CCN[C@@H]1CCc2ccccc21 [Rasagiline, reference compound]")
"Y"
>>> assigned_label("C#CCN(CC#C)CCc1c[nH]c2ccc(OC(=O)C=Cc3ccccc3)cc12")
"Y"

###

- SUBJECT_OF_TEST: hrMAO-A (Homo sapiens, UniProt P21397)
- Construct: purchased Sigma–Aldrich
- Sequence (P21397 1-527): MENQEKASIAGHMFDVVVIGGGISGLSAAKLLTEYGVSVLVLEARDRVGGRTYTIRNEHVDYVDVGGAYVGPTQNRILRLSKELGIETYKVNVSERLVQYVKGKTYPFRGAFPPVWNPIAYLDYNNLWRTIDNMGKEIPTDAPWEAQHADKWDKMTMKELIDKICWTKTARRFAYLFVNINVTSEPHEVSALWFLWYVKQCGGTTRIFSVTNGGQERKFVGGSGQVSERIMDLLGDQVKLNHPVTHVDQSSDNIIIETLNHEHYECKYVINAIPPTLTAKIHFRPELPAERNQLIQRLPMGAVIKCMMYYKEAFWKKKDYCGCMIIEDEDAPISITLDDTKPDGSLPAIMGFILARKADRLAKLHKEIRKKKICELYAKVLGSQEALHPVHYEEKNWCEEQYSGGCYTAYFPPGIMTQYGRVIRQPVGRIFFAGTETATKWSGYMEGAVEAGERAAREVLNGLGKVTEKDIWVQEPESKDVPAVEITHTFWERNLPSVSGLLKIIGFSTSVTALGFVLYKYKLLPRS
- METHOD_SUMMARY: Inhibition of monoamine oxidase A (Amplex UltraRed, tyramine)
- Format: biochemical
- RECORDED_CONDITIONS: 30 min pre-incubation, 37 °C; read-out: IC50 MAO-A
Measured IC50 values are reported for all entries that follow.
TEST_READOUT: IC50 (µM)

>>> number("C#CCNCCc1c[nH]c2ccc(OC(=O)/C=C/c3ccc(C)cc3)cc12")
59.1
>>> number("C#CC(=O)NCCc1c[nH]c2ccc(OC(=O)/C=C/c3ccc(C)cc3)cc12")
81.9
>>> number("C#CCN(CC#C)CCc1c[nH]c2ccc(OC(=O)C=Cc3ccccc3)cc12")
56.6
